These data points were gathered from patent US20200246323A1.

- System: Molt-4 human acute lymphoblastic leukemia cells
- TEST SUMMARY: Molt-4 cell viability assay (CellTiter-Glo, 48 hours)
- Type: cell-based
- CONDITION NOTES: 10% human serum, read-out: Molt-4 Viability EC50 (nM, 10% HS)
TEST READOUT: EC50 (nM)

{"COMPOUND": "Cc1c(-c2ccc(N3CCc4cccc(C(=O)Nc5nc6ccccc6s5)c4C3)nc2C(=O)O)cnn1CC12CC3(C)CC(C)(C1)CC(OCCN)(C3)C2 [Example 1.3]", "EC50 / nM": 6.6}

(a) CNCCOCCOCCOC12CC3(C)CC(C)(CC(Cn4ncc(-c5ccc(N6CCc7cccc(C(=O)Nc8nc9ccccc9s8)c7C6)nc5C(=O)O)c4C)(C3)C1)C2 [Example 1.2]
(b) Cc1c(-c2ccc(N3CCc4c(F)ccc(C(=O)Nc5nc6ccccc6s5)c4C3)nc2C(=O)O)cnn1CC12CC3(C)CC(C)(C1)CC(OCCN)(C3)C2 [Example 1.6]
(c) Cc1c(-c2ccc(N3CCc4cccc(C(=O)Nc5nc6ccccc6s5)c4C3)nc2C(=O)O)cnn1CC12CC3(C)CC(C)(C1)CC(OCCOCCN)(C3)C2 [Example 1.4]
Rank descending by EC50. Your reply should list the labels following the order given in the request.
b, c, a

* * *

- TARGET UNDER TEST: GST-Bcl-xL (Homo sapiens)
- Sequence (Q07817 whole entry): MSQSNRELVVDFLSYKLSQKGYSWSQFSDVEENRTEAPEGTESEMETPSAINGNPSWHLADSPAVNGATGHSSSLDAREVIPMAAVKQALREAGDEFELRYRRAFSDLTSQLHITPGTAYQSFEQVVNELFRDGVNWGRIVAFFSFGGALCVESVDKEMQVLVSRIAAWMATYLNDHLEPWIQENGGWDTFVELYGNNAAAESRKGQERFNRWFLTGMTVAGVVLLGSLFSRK
- TEST SUMMARY: TR-FRET Bcl-xL binding assay (competition with probe F-Bak)
- CONDITION NOTES: without HS; read-out: Bcl-xL Binding Ki
TEST READOUT: Ki (nM)

Observe how each entry below is paired with its result.
{"STRUCTURE": "CNCCOC12CC3(C)CC(C)(CC(Cn4ncc(-c5ccc(N6CCc7cccc(C(=O)Nc8nc9ccccc9s8)c7C6)nc5C(=O)O)c4C)(C3)C1)C2", "Ki, nM": 0.0029}
{"STRUCTURE": "Cc1c(-c2ccc(N3CCc4ccc(F)c(C(=O)Nc5nc6ccccc6s5)c4C3)nc2C(=O)O)cnn1CC12CC3(C)CC(C)(C1)CC(OCCN)(C3)C2", "Ki, nM": 0.1}
{"STRUCTURE": "Cc1c(-c2ccc(N3CCc4cc(F)cc(C(=O)Nc5nc6ccccc6s5)c4C3)nc2C(=O)O)cnn1CC12CC3(C)CC(C)(C1)CC(OCCN)(C3)C2", "Ki, nM": 0.011}

(A) Cc1c(-c2ccc(N3CCc4cccc(C(=O)Nc5nc6ccccc6s5)c4C3)nc2C(=O)O)cnn1CC12CC3(C)CC(C)(C1)CC(OCCOCCN)(C3)C2
(B) Cc1c(-c2ccc(N3CCc4c(F)ccc(C(=O)Nc5nc6ccccc6s5)c4C3)nc2C(=O)O)cnn1CC12CC3(C)CC(C)(C1)CC(OCCN)(C3)C2
(C) CNCCOCCOCCOC12CC3(C)CC(C)(CC(Cn4ncc(-c5ccc(N6CCc7cccc(C(=O)Nc8nc9ccccc9s8)c7C6)nc5C(=O)O)c4C)(C3)C1)C2
Arrange by Ki, high to low. Provide the ranking by listing each label in its place in the requested order.
C, B, A
